Provenance of the data: ChEMBL document CHEMBL1153760

# Experiment Summary: Half life in rat at 2 mg/kg, iv administered as single dose by LC-MS/MS analysis
# Type: ADME, organism-based
# Parameters: dose 2 mg/kg, route intravenous
# Run Conditions: in vivo
Measured Attribute: half-life (h)
Write down the numeric answer in h and omit the unit.

Entry COc1ccc2c(c1)O[C@H](c1ccc(OCCN3CCCCC3)cc1)C1=C2CCOc2cc(OC)ccc21 has what half-life?
5.82

###

# Species on record: Rattus norvegicus
# Experiment Summary: animal or person
# Format: functional
# Run Conditions: Uterus, 72 h, route oral
Measured Attribute: inhibition in vivo at 1 mg/kg (%)
State just the number; it will be interpreted in %.

Example entries begin here.
# Compound, inhibition in vivo at 1 mg/kg (%)
measured = [
    ("CCN(CC)CCOc1ccc([C@@H]2Oc3ccccc3C3=C2c2ccc(O)cc2OCC3)cc1", 30),
    ("Oc1ccc2c(c1)O[C@H](c1cccc(OCCN3CCCCC3)c1)C1=C2CCOc2cc(O)ccc21", 0),
]

Report inhibition in vivo at 1 mg/kg for COc1ccc2c(c1)OCCC1=C2[C@H](c2ccc(OCCN3CCCCC3)cc2)Oc2cc(O)ccc21 please.
20

Which inhibition in vivo at 1 mg/kg is reported for this compound? CN(C)CCOc1ccc([C@@H]2Oc3cc(O)ccc3C3=C2c2ccccc2OCC3)cc1
20

Which inhibition in vivo at 1 mg/kg value belongs to Oc1ccc2c(c1)O[C@@H](c1ccc(OCCN3CCCCCC3)cc1)C1=C2CCOc2cc(O)ccc21 ?
50

What does the data say about its inhibition in vivo at 1 mg/kg? Entry: CN(C)CCOc1ccc([C@@H]2Oc3cc(O)ccc3C3=C2c2ccc(O)cc2OCC3)cc1
0

Consider the compound O=C(c1ccc(OCCN2CCCCC2)cc1)c1c(-c2ccc(O)cc2)sc2cc(O)ccc12 [RALOXIFENE] and give its measured inhibition in vivo at 1 mg/kg.
105

Using the record for Oc1ccc2c(c1)O[C@H](c1ccc(OCCN3CCCC3)cc1)C1=C2CCOc2cc(O)ccc21 , report its inhibition in vivo at 1 mg/kg.
10

Quick one: inhibition in vivo at 1 mg/kg for Oc1ccc2c(c1)OCCC1=C2[C@H](c2ccc(OCCN3CCCCCC3)cc2)Oc2cc(F)ccc21 ?
33

###

Reported values: pIC50 for UniProt Q92731, one per item.
Sequence (Q92731 whole entry): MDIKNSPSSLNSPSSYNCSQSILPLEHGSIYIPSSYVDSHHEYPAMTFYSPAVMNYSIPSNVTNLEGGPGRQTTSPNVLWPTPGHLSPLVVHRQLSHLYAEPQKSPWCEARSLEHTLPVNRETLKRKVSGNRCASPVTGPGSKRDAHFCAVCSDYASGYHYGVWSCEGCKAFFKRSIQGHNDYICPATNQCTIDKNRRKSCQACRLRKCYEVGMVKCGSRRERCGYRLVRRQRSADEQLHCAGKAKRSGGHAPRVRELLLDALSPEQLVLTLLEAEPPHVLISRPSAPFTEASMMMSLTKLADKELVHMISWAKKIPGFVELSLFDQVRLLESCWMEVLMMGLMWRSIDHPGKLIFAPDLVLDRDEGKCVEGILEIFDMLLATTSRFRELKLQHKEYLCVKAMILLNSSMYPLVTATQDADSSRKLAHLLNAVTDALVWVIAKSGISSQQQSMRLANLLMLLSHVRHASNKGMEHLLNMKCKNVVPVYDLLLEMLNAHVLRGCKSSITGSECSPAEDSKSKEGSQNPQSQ
Lab note: report pIC50 as minus log10 of the concentration in molar units, number only.

Please review the entries below; each comes with its answer.
# Item Smiles, pIC50
measured = [
    ("Oc1ccc2c(c1)OCCC1=C2[C@@H](c2ccc(OCCN3CCCCCC3)cc2)Oc2ccccc21", 6.90),
    ("O=C1CCC(=O)N1CCOc1ccc([C@@H]2Oc3cc(O)ccc3C3=C2c2ccc(O)cc2OCC3)cc1", 7.73),
    ("Oc1ccc2c(c1)O[C@H](c1cccc(OCCN3CCCCC3)c1)C1=C2CCOc2cc(O)ccc21", 6.42),
    ("Oc1ccc2c(c1)O[C@@H](c1ccc(OCCN3CCCC3)cc1)C1=C2CCOc2cc(O)ccc21", 8.06),
]

Next up:
Please tell me: pIC50 of O=C1CCC(=O)N1CCCOc1ccc([C@H]2Oc3cc(O)ccc3C3=C2c2ccc(O)cc2OCC3)cc1 , system UniProt Q92731?
7.90
